Data origin: ChEMBL document CHEMBL1133531

Consider molecules characterized by their pKi with Carbonic anhydrase 1 (Homo sapiens, UniProt P00915).
Sequence (P00915 whole entry): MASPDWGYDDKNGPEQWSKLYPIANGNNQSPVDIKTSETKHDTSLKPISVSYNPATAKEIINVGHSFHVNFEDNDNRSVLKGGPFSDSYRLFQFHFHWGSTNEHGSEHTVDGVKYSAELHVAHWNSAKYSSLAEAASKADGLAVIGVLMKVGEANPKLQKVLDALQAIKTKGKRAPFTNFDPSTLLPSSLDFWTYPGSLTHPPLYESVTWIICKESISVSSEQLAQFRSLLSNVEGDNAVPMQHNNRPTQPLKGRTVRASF
pKi: −log10 of the molar value.
Quantity kind: pKi

Field: example entries. Status: answers known.
Cpd smiles | pKi
NS(=O)(=O)c1ccccc1NS(=O)(=O)c1c(F)c(F)c(F)c(F)c1F | 5.86
NS(=O)(=O)c1ccc(NS(=O)(=O)c2ccc(NS(=O)(=O)C(F)(F)C(F)(F)C(F)(F)C(F)(F)F)cc2)cc1 | 5.44
NS(=O)(=O)c1nnc(NS(=O)(=O)c2ccc(NS(=O)(=O)c3c(F)c(F)c(F)c(F)c3F)cc2)s1 | 7.62
NS(=O)(=O)c1ccc(NNS(=O)(=O)C(F)(F)F)cc1 | 3.81
NS(=O)(=O)c1ccc(CCNC(=O)c2c(F)c(F)c(F)c(F)c2F)cc1 | 6.05
NS(=O)(=O)c1ccc(NS(=O)(=O)c2ccc(NS(=O)(=O)c3c(F)c(F)c(F)c(F)c3F)cc2)cc1 | 6.90

(A) NS(=O)(=O)c1ccc(NS(=O)(=O)C(F)(F)C(F)(F)C(F)(F)C(F)(F)F)c(I)c1
(B) NS(=O)(=O)c1nnc(NC(=O)CCNC(=O)c2c(F)c(F)c(F)c(F)c2F)s1
Task: Returns the identifier with the smallest measured pKi among A and B . Choose, then provide that item's label.
Result: A
(A: 4.63, B: 6.52)
